tested on: MOLT-4 leukemia; test: NCI-60 one-dose screen, 48 h; conditions: 10 µM unless noted
Compounds without any hit were thinned out: in the full panel of roughly 83,000, 20% have a hit. Calls of active or inactive are those of the source. The calls were made as follows: active = growth percent below 10; inactive = the rest.
The categories you may choose from are active, inactive

Dear colleague, could you share the recorded outcome for C=CC12CCN(CC1)C(C(O)c1ccnc3ccc(OC)cc13)C2 (stereo unspecified) when you have a moment?
inactive

What about this compound? CCn1c2ccccc2c2cc(C(=O)c3ccc(C)c4ccccc34)ccc21
active

Request: COC(=O)[C@@H](C)C[C@H](Cc1ccccc1)NC(=O)c1csc([C@@H](C[C@H](C(C)C)N(C)C(=O)[C@H](C)NC(=O)[C@H]2CCCCN2C)OC(C)=O)n1
inactive

Next: CN1CCC(O)(c2ccc(F)cc2)C(C(=O)c2ccc(F)cc2)C1 (stereo unspecified)
inactive

Same thing, different compound: CC1=C(CCCOC(=O)[C@H](N)CC(C)C)C2=C(C)C3(CC3)[C@@](C)(O)C(=O)C2=C1
inactive

Another: C/C(=C\c1ccn(-c2ccc(N)c(F)c2)n1)[C@@H]1C[C@@H]2O[C@]2(C)CCC[C@H](C)[C@H](O)[C@@H](C)C(=O)C(C)(C)[C@@H](O)CC(=O)O1
active

What about this compound? COc1ccc(/C=C\c2cc(OC)c(OC)c(OC)c2)cc1OCC(=O)Nc1nc2ccc(F)cc2s1
inactive

Also CC[C@H](C)[C@H](NC(=O)c1ccccn1)C(=O)N(C)[C@H](C[C@@H](OC(C)=O)c1nc(C(=O)N[C@@H](Cc2ccccc2)C[C@H](C)C(=O)OC)cs1)C(C)C ?
inactive

Moving on to the next compound: CNC12C3C4C1C1C2C3C41C(=O)N[C@H](C(=O)N(C)[C@H](C[C@@H](OC(C)=O)c1nc(C(=O)N[C@@H](Cc2ccccc2)C[C@H](C)C(=O)OC)cs1)C(C)C)C1CC1 (stereo partly specified)
active

Try the compound COC(=O)[C@]12CCC(C)(C)C[C@H]1[C@H]1C(=O)C[C@@H]3[C@@]4(C)C[C@@]5(CC(C)(C)[C@@H]4CC[C@@]3(C)[C@]1(C)CC2)OO[C@@](C)(C(F)(F)F)O5
inactive

Moving on to CC[CH2][Sn]([Cl])([Cl])[CH2]CC
inactive

Let us now turn to Cc1c(O)c(CN(CCCl)CCCl)cc(CN(CCCl)CCCl)c1O
inactive

Can you check Clc1ccc(N2COOC3(OOC2)C2CC4CC(C2)CC3C4)cc1 next?
inactive

And COP(=S)(N1CC1)N1CC1 ?
inactive

Would you mind doing C#C[C@]1(OC(=O)CCCCCC)CC[C@H]2[C@@H]3CCC4=CC(=O)CC[C@@H]4[C@H]3CC[C@@]21C as well?
inactive

Same thing, different compound: CC1(C)N=C(N)N=C(N)N1c1ccc(CCC(=O)Nc2ccc(S(=O)(=O)F)cc2)c(Cl)c1
inactive
